System: multidrug-resistant Pseudomonas aeruginosa MDR-PA 18-1774,18-202
Assay: MIC by microbroth dilution method, MDR-PA strains
Format: cell-based
Settings: strain MDR-PA 18-174; 37° C., 20-22 hours
parameter: Minimum bacteriostatic concentration

{"smiles.text": "O=C(O)c1cc(O)c2c(c1)C(=O)c1cccc(O)c1C2=O", "parameter": "Minimum bacteriostatic concentration", "result": ">128 µg/mL"}
{"smiles.text": "CC=CCO", "parameter": "Minimum bacteriostatic concentration", "result": ">128 µg/mL"}
{"smiles.text": "C/C=C/COC(=O)c1cc(O)c2c(c1)C(=O)c1cccc(O)c1C2=O", "parameter": "Minimum bacteriostatic concentration", "result": ">128 µg/mL"}

The reported numbers originate from patent US10717699B1.
